FYI, the data here is from ChEMBL document CHEMBL1671792.

# tgt: Bile acid receptor (Homo sapiens)
# measurement_protocol: Agonist activity at human FXR LBD iexpressed in monkey CV-1 cells assessed as transactivation of luciferase reporter gene expression relative to GW 4064
# Format: functional, cell-based
# Design: concentration or dose not given beside the values
Just a reminder that ties go to Not met: only Activity strictly below 90% counts as Met.

Request: Lab note: Activity threshold 90%. Does this molecule come in strictly under it? CC(C)c1onc(-c2c(Cl)cccc2Cl)c1COc1ccc(-c2ccc3c(C(=O)O)ccnc3c2)cc1
Response: Met

Request: Lab note: Activity threshold 90%. Does this molecule come in strictly under it? CC(C)c1onc(-c2c(Cl)cccc2Cl)c1COc1ccc(-c2ccc3c(C(=O)O)cccc3c2)cc1
Response: Not met

Request: Lab note: Activity threshold 90%. Does this molecule come in strictly under it? CCCOc1cc(C(=O)O)nc2ccc(-c3ccc(OCc4c(-c5c(Cl)cccc5Cl)noc4C(C)C)cc3)cc12
Response: Not met

Request: Lab note: Activity threshold 90%. Does this molecule come in strictly under it? Cc1cc2cc(-c3ccc(OCc4c(-c5c(Cl)cccc5Cl)noc4C(C)C)cc3)ccc2nc1C(=O)O
Response: Not met

Request: Lab note: Activity threshold 90%. Does this molecule come in strictly under it? CC(C)c1onc(-c2c(Cl)cccc2Cl)c1COc1ccc(-c2cc3ccc(C(=O)O)nc3cc2F)cc1
Response: Not met

Request: Lab note: Activity threshold 90%. Does this molecule come in strictly under it? CCOc1cc(C(=O)O)nc2ccc(-c3ccc(OCc4c(-c5c(Cl)cccc5Cl)noc4C(C)C)cc3)cc12
Response: Met

Request: Lab note: Activity threshold 90%. Does this molecule come in strictly under it? CC(C)c1onc(-c2c(Cl)cccc2Cl)c1COc1ccc(-c2ccc3nc(C(=O)O)cnc3c2)cc1
Response: Not met

Request: Lab note: Activity threshold 90%. Does this molecule come in strictly under it? Cc1cc(-c2ccc3nc(C(=O)O)ccc3c2)ccc1OCc1c(-c2c(Cl)cccc2Cl)noc1C(C)C
Response: Not met

###

# tgt: Cytochrome P450 2C19 (Homo sapiens, UniProt P33261)
# Sequence (P33261 whole entry): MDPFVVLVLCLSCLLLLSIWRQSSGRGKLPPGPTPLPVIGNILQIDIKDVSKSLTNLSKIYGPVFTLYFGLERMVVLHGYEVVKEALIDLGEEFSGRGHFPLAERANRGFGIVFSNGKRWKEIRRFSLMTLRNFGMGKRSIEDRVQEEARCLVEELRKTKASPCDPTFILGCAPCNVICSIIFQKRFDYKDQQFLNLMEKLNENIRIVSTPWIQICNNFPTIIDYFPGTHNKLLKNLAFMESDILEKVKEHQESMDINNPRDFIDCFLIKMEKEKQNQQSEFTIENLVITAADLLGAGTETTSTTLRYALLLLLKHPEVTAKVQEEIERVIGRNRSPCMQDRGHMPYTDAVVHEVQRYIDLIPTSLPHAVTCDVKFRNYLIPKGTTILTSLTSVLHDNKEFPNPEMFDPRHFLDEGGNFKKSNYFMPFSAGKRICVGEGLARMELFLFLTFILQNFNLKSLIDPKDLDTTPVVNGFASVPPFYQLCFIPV
assay_readout: IC50

Request: Dear colleague, I am looking for the recorded IC50 of the following compound: CC(C)c1onc(-c2c(Cl)cccc2Cl)c1COc1ccc(-c2ccc3nc(C(=O)O)ccc3c2)cc1
Response: > 33 µM

###

# tgt: Bile acid receptor (Homo sapiens, UniProt Q96RI1)
# measurement_protocol: Agonist activity at human FXR LBD assessed as SRC1 peptide recruitment by FRET assay
# Format: functional
Assignment: determine reported pEC50 for the given molecules.
For clarity, pEC50 is expressed as the negative log10 of concentration in mol/L.

Request: Dear colleague, I am looking for the recorded pEC50 of the following molecule: CC(C)c1onc(-c2c(Cl)cccc2Cl)c1COc1ccc(-c2cc3ccc(C(=O)O)nc3cc2F)cc1
Response: 6.62

Request: Dear colleague, I am looking for the recorded pEC50 of the following molecule: CC(C)c1onc(-c2c(Cl)cccc2Cl)c1COc1ccc(-c2ccc3cc(C(=O)O)ncc3c2)cc1
Response: 6.92

Request: Dear colleague, I am looking for the recorded pEC50 of the following molecule: CCc1cc(C(=O)O)nc2ccc(-c3ccc(OCc4c(-c5c(Cl)cccc5Cl)noc4C(C)C)cc3)cc12
Response: 7.12

###

# tgt: Bile acid receptor (Homo sapiens)
# Sequence (whole entry): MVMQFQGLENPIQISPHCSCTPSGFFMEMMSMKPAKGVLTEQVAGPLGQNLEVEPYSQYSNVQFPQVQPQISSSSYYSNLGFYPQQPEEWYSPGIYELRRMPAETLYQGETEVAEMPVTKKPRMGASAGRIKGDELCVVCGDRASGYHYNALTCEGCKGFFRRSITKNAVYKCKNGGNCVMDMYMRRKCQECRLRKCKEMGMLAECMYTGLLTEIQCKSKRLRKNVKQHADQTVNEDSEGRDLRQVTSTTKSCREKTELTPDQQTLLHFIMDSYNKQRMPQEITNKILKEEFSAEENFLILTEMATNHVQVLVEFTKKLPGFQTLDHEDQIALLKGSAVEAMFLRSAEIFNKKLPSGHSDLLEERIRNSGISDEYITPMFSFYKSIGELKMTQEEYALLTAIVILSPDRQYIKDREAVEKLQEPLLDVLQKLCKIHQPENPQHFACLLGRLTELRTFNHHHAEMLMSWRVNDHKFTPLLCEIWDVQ
# measurement_protocol: Agonist activity at human FXR LBD iexpressed in monkey CV-1 cells assessed as transactivation of luciferase reporter gene expression relative to GW 4064
# Assay type: functional, cell-based
# Design: concentration or dose not given beside the values
assay_readout: Activity (%)
Your answer is read as %, so omit the unit and give the number.

Request: Dear colleague, I am looking for the recorded Activity of the following compound: CC(C)Oc1cc(C(=O)O)nc2ccc(-c3ccc(OCc4c(-c5c(Cl)cccc5Cl)noc4C(C)C)cc3)cc12
Response: 103

Request: Dear colleague, I am looking for the recorded Activity of the following compound: Cc1cc(C(=O)O)nc2ccc(-c3ccc(OCc4c(-c5c(Cl)cccc5Cl)noc4C(C)C)cc3)cc12
Response: 107

Request: Dear colleague, I am looking for the recorded Activity of the following compound: CC(C)c1onc(-c2c(Cl)cccc2Cl)c1COc1ccc(-c2ccc3cc(C(=O)O)cnc3c2)cc1
Response: 88

###

# measurement_protocol: Half life in iv dosed Beagle dog
# Type: ADME, organism-based, Canis lupus familiaris
# measurement_context: in vivo
Assignment: determine reported half-life for the given compounds.
Your answer is read as h, so omit the unit and give the number.

Request: Dear colleague, I am looking for the recorded half-life of the following compound: CC(C)c1onc(-c2c(Cl)cccc2Cl)c1COc1ccc(-c2ccc3nc(C(=O)O)ccc3c2)cc1
Response: 1.83

Request: Dear colleague, I am looking for the recorded half-life of the following compound: CC(C)c1onc(-c2c(Cl)cccc2Cl)c1COc1ccc(-c2ccc3cc(C(=O)O)ncc3c2)cc1
Response: 3.83

###

# tgt: Bile acid receptor (Homo sapiens)
# measurement_protocol: Agonist activity at human FXR LBD iexpressed in monkey CV-1 cells assessed as transactivation of luciferase reporter gene expression
# Assay type: functional, cell-based
assay_readout: pEC50
For clarity, pEC50 is expressed as the negative log10 of concentration in mol/L.

Request: Dear colleague, I am looking for the recorded pEC50 of the following molecule: Cc1cc(OCc2c(-c3c(Cl)cccc3Cl)noc2C(C)C)ccc1-c1ccc2nc(C(=O)O)ccc2c1
Response: 7.28

Request: Dear colleague, I am looking for the recorded pEC50 of the following molecule: CCCOc1cc(C(=O)O)nc2ccc(-c3ccc(OCc4c(-c5c(Cl)cccc5Cl)noc4C(C)C)cc3)cc12
Response: 7.66

Request: Dear colleague, I am looking for the recorded pEC50 of the following molecule: COc1cc(C(=O)O)nc2ccc(-c3ccc(OCc4c(-c5c(Cl)cccc5Cl)noc4C(C)C)cc3)cc12
Response: 7.77

Request: Dear colleague, I am looking for the recorded pEC50 of the following molecule: CC(C)c1onc(-c2c(Cl)cccc2Cl)c1COc1ccc(-c2cc3ccc(C(=O)O)nc3cc2F)cc1
Response: 6.96

###

# tgt: Bile acid receptor (Homo sapiens)
# measurement_protocol: Agonist activity at human FXR LBD iexpressed in monkey CV-1 cells assessed as transactivation of luciferase reporter gene expression relative to GW 4064
# Assay type: functional, cell-based
# Design: concentration or dose not given beside the values
Assignment: determine reported Activity for the given compounds.
Your answer is read as %, so omit the unit and give the number.

Request: Dear colleague, I am looking for the recorded Activity of the following compound: CC(C)c1onc(-c2c(Cl)cccc2Cl)c1COc1ccc(-c2ccc3nc(C(=O)O)ccc3c2)cc1
Response: 102

Request: Dear colleague, I am looking for the recorded Activity of the following compound: Cc1cc(OCc2c(-c3c(Cl)cccc3Cl)noc2C(C)C)ccc1-c1ccc2nc(C(=O)O)ccc2c1
Response: 91

Request: Dear colleague, I am looking for the recorded Activity of the following compound: COc1cc(C(=O)O)nc2ccc(-c3ccc(OCc4c(-c5c(Cl)cccc5Cl)noc4C(C)C)cc3)cc12
Response: 107

Request: Dear colleague, I am looking for the recorded Activity of the following compound: CC(C)COc1cc(C(=O)O)nc2ccc(-c3ccc(OCc4c(-c5c(Cl)cccc5Cl)noc4C(C)C)cc3)cc12
Response: 93

###

# tgt: Bile acid receptor (Homo sapiens, UniProt Q96RI1)
# Sequence (Q96RI1 whole entry): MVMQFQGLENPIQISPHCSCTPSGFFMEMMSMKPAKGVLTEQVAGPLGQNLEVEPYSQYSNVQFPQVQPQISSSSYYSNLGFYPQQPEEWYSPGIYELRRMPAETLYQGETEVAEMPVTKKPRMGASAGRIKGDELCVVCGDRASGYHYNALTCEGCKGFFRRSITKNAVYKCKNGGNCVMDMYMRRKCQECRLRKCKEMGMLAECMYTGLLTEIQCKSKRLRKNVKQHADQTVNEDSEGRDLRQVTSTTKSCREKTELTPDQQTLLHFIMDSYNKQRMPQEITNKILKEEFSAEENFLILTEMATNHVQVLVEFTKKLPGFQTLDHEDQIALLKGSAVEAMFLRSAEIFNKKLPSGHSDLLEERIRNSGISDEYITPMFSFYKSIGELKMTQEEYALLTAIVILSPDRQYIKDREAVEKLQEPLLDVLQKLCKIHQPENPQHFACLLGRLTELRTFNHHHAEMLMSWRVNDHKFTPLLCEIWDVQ
# measurement_protocol: Agonist activity at human FXR LBD iexpressed in monkey CV-1 cells assessed as transactivation of luciferase reporter gene expression
# Format: functional, cell-based
assay_readout: log10 of EC50 (log10 of the value in nM)
Answers are given as log10 of EC50 in nM.

Request: Dear colleague, I am looking for the recorded log10 of EC50 of the following molecule: CC(C)COc1cc(C(=O)O)nc2ccc(-c3ccc(OCc4c(-c5c(Cl)cccc5Cl)noc4C(C)C)cc3)cc12
Response: 1.91

Request: Dear colleague, I am looking for the recorded log10 of EC50 of the following molecule: CC(C)c1onc(-c2c(Cl)cccc2Cl)c1COc1ccc(-c2ccc3nc(C(=O)O)ccc3c2)cc1
Response: 1.70

Request: Dear colleague, I am looking for the recorded log10 of EC50 of the following molecule: Cc1cc(C(=O)O)nc2ccc(-c3ccc(OCc4c(-c5c(Cl)cccc5Cl)noc4C(C)C)cc3)cc12
Response: 1.38

Request: Dear colleague, I am looking for the recorded log10 of EC50 of the following molecule: Cc1nc(C(=O)O)nc2ccc(-c3ccc(OCc4c(-c5c(Cl)cccc5Cl)noc4C(C)C)cc3)cc12
Response: 3.00

Request: Dear colleague, I am looking for the recorded log10 of EC50 of the following molecule: CC(C)c1onc(-c2c(Cl)cccc2Cl)c1COc1ccc(-c2ccc3cc(C(=O)O)ncc3c2)cc1
Response: 1.89

Request: Dear colleague, I am looking for the recorded log10 of EC50 of the following molecule: CC(C)c1onc(-c2c(Cl)cccc2Cl)c1COc1ccc(-c2ccc3c(C(=O)O)ccnc3c2)cc1
Response: 2.75

Request: Dear colleague, I am looking for the recorded log10 of EC50 of the following molecule: CC(C)c1onc(-c2c(Cl)cccc2Cl)c1COc1ccc(-c2ccc3nc(C(=O)O)cnc3c2)cc1
Response: 2.84

Request: Dear colleague, I am looking for the recorded log10 of EC50 of the following molecule: CCOc1cc(C(=O)O)nc2ccc(-c3ccc(OCc4c(-c5c(Cl)cccc5Cl)noc4C(C)C)cc3)cc12
Response: 1.15

Request: Dear colleague, I am looking for the recorded log10 of EC50 of the following molecule: Cc1cc2cc(-c3ccc(OCc4c(-c5c(Cl)cccc5Cl)noc4C(C)C)cc3)ccc2nc1C(=O)O
Response: 1.58

Request: Dear colleague, I am looking for the recorded log10 of EC50 of the following molecule: CC(C)Oc1cc(C(=O)O)nc2ccc(-c3ccc(OCc4c(-c5c(Cl)cccc5Cl)noc4C(C)C)cc3)cc12
Response: 1.15
